# TARGET: KRAS G13C (Homo sapiens (Human), UniProt P01116+P62937, G13C)
# Sequence (P01116 other isoform, or with tags, fused parts or gaps G13C): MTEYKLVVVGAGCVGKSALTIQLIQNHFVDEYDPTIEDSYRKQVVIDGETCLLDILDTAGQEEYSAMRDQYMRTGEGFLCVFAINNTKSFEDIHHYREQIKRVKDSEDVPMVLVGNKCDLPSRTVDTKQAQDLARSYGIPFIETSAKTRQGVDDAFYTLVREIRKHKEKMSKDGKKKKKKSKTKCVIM
# Sequence (P62937 whole entry): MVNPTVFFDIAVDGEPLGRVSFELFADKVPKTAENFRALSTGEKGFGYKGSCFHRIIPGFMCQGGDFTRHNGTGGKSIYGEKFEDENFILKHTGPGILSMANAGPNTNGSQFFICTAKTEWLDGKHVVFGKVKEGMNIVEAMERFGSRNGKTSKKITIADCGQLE
# PROTOCOL_NOTES: Ras-Raf disruption/FRET/MOA assay (BRAF RBD, Cyclophilin A)
# Format: biochemical
# CONDITION_LABEL: read-out: KRAS G13C FRET IC50
pIC50: −log10 of the molar value.
pIC50 listing for selected compounds.

STRUCTURE_SMILES_STRING | pIC50
CCn1c(-c2cccnc2[C@H](C)OC)c2c3cc(ccc31)-c1csc(n1)C[C@H](NC(=O)[C@H](C(C)C)N(C)C(=O)N1CC3(CN(C)C3)C1)C(=O)N1CCC[C@H](N1)C(=O)OCC(C)(C)C2 | 6.00 to 7.00
CCn1c(-c2cccnc2[C@H](C)OC)c2c3cc(ccc31)-c1csc(n1)C[C@H](NC(=O)[C@H](C(C)C)N(C)C(=O)N1CC(CN(C)C)C1)C(=O)N1CCC[C@H](N1)C(=O)OCC(C)(C)C2 | 6.00 to 7.00
CCn1c(-c2cccnc2[C@H](C)OC)c2c3cc(ccc31)-c1cc(O)cc(c1)C[C@H](NC(=O)[C@H](C(C)C)N(C)C(=O)[C@H]1CCN(C(=O)[C@@H]3CCCN3)C1)C(=O)N1CCC[C@H](N1)C(=O)OCC(C)(C)C2 | 7.00 to 8.00
CCn1c(-c2cccnc2[C@H](C)OC)c2c3cc(ccc31)-c1csc(n1)C[C@H](NC(=O)[C@H](C(C)C)N(C)C(=O)N1CCN(C(=O)[C@@H]3CCCN3C)CC1)C(=O)N1CCC[C@H](N1)C(=O)OCC(C)(C)C2 | 6.00 to 7.00
CCn1c(-c2cnccc2COC)c2c3cc(ccc31)-c1cc(O)cc(c1)C[C@H](NC(=O)[C@H](C(C)C)N(C)C(=O)[C@H]1CNC[C@H]1C(F)(F)F)C(=O)N1CCC[C@H](N1)C(=O)OCC(C)(C)C2 | 7.00 to 8.00
CCn1c(-c2cccnc2[C@H](C)OC)c2c3cc(ccc31)-c1csc(n1)C[C@H](NC(=O)[C@H](C(C)C)N(C)C(=O)N1CC3CC(C1)O3)C(=O)N1CCC[C@H](N1)C(=O)OCC(C)(C)C2 | 5.00 to 6.00
CCn1c(-c2cnccc2COC)c2c3cc(ccc31)-c1cc(O)cc(c1)C[C@H](NC(=O)[C@H](C(C)C)N(C)C(=O)CNC(=N)N)C(=O)N1CCC[C@H](N1)C(=O)OCC(C)(C)C2 | 7.00 to 8.00
CCn1c(-c2cccnc2[C@H](C)OC)c2c3cc(ccc31)-c1csc(n1)C[C@H](NC(=O)[C@H](C(C)C)N(C)C(=O)N1CC3(CCOCC3)C1)C(=O)N1CCC[C@H](N1)C(=O)OCC(C)(C)C2 | 6.00 to 7.00
CCn1c(-c2cnccc2COC)c2c3cc(ccc31)-c1cc(O)cc(c1)C[C@H](NC(=O)[C@H](C(C)C)N(C)C(=O)CN/C(N)=N/C#N)C(=O)N1CCC[C@H](N1)C(=O)OCC(C)(C)C2 | 6.00 to 7.00
